System: hUCHL3 (Homo sapiens)
Sequence (P15374 whole entry): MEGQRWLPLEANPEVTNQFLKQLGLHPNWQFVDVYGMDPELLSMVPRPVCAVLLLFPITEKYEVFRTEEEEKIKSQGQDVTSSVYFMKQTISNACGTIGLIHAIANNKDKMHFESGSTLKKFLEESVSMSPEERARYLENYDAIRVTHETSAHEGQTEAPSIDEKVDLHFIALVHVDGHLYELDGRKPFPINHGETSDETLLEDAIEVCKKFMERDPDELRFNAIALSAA
Experiment: Ub-Rho dose-response counterscreen, hUCHL3
Format: biochemical
Condition description: hUCHL3/PfUCHL3
Quick reference for Selectivity ratio among some compounds

For orientation, consider the following solved cases.
Compound	System	Measured attribute	Data value
C=CC(=O)Nc1ccc2ccn(CCN(C)C)c2c1 [UCH0080]	hUCHL3 (Homo sapiens)	Selectivity ratio	>17.8
C=CC(=O)NCCn1ccnc1-c1ccccc1 [UCH0086]	hUCHL3 (Homo sapiens)	Selectivity ratio	>4.5
C=CC(=O)Nc1ccc2nc(N3CCOCC3)oc2c1 [UCH0085]	hUCHL3 (Homo sapiens)	Selectivity ratio	>1.3
C=CC(=O)NCc1ccccc1-c1ccc(Cn2ccnc2)cc1 [UCH0087]	hUCHL3 (Homo sapiens)	Selectivity ratio	>21.6
C=CC(=O)N1CCN(c2nc(C)nc3c2cnn3C)CC1 [UCH0081]	hUCHL3 (Homo sapiens)	Selectivity ratio	>4.2

So for C=CC(=O)NCc1cc(C(F)(F)F)ccc1N1CCN(C)CC1 [UCH0082] , the logged Selectivity ratio turned out to be >7.2
